test details: physchem
test conditions: pH 3.4, logP (HCOOH)
chromatographic logP values by entry
Number, no unit, nothing else.

O=C(NS(=O)(=O)C1CC1)c1cccc(-c2nnc(-c3cncc(F)c3)s2)n1 ... 2.14
COCCS(=O)(=O)Nc1cccc(-c2cnn(-c3cccnc3)c2)n1 ... 1.43
CS(=O)(=O)Nc1cccc(-c2cnn(-c3cccnc3)c2)n1 ... 1.26
CS(=O)(=O)NC(=O)c1csc(-c2cnn(-c3cncc(F)c3)c2)n1 ... 1.66
Cc1nc(-c2cncc(F)c2)sc1-c1cc(C(=O)NS(C)(=O)=O)nn1C ... 1.84

The recorded chromatographic logP for CS(=O)(=O)NC(=O)c1cccc(-c2cnn(-c3cccnc3)c2)n1 is 1.48

The recorded chromatographic logP for COCCS(=O)(=O)NC(=O)c1cccc(-c2nnc(-c3cncc(F)c3)s2)n1 is 1.97
